- System: Mycobacterium tuberculosis
- assay.explanation: Antimycobacterial activity against Mycobacterium tuberculosis H37Rv assessed as bacterial growth at 5 ug/mL after 45 days by Lowenstein-Jensen method
- Assay type: functional

- substance.smiles: "CC[C@H](CO)NC(=O)Nc1ccc(NC(=O)N[C@H](CC)CO)cc1"
  Activity: "100%"
- substance.smiles: "CC[C@H](CO)NC(=O)Nc1ccccc1"
  Activity: "100%"
- substance.smiles: "CCCNC(=O)N[C@H](CC)CO"
  Activity: "100%"

The measured values listed here are drawn from ChEMBL document CHEMBL2375250.
